Target: hEP2 (Homo sapiens)
Construct: expressed in transfected cells; host or cells: HEK293
Sequence (P43116 whole entry): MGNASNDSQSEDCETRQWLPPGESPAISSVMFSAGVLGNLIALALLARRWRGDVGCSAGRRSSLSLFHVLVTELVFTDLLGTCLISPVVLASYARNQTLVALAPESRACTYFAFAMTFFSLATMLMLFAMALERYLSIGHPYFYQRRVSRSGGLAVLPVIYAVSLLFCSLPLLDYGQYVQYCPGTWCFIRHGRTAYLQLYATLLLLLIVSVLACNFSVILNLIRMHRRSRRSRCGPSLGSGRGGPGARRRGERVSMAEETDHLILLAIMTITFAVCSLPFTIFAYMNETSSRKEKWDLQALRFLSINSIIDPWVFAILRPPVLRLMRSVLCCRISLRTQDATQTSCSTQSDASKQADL
Assay: hEP2 cAMP assay
Type: cell-based
Conditions: HEK293 cells overexpressing hEP2; PGE2 agonist 400 pM; graded per Table 21; read-out: IC50 (nM) EP2 cAMP
MEASUREMENT_LABEL: IC50

input: Can you look up IC50 on hEP2 (Homo sapiens) for CCc1ccc(-c2ccc(Cc3c(C)sc(C)c3C(=O)NC3CC4(C3)CC(C(=O)O)C4)cc2)cc1 (stereo not drawn) ?
output: 5000 to 10000 nM

input: Provide the documented IC50 with hEP2 (Homo sapiens) as the system for O=C(N[C@H]1CC2(C1)C[C@H](C(=O)O)C2)c1csc2ccn(Cc3ccc(-c4ccccc4)cc3)c12 (single isomer, unassigned) [Example 79b]
output: < 500 nM

input: Lab note: need IC50 with hEP2 (Homo sapiens) for entry Cc1sc(C)c(C(O)c2ccc(-c3ccccc3)cc2)c1C(=O)NC1CC2(C1)CC(C(=O)O)C2 (stereo not drawn) , please look it up.
output: > 10000 nM

input: Provide the documented IC50 with hEP2 (Homo sapiens) as the system for COc1ccc(F)c(-c2ccc(Cc3c(C)sc(C)c3C(=O)NC3CC4(C3)CC(C(=O)O)C4)cc2)c1 (stereo not drawn)
output: > 10000 nM

input: Please tell me: IC50 of Cc1cc(C(F)(F)F)n(-c2ccc(Cn3ccc4scc(C(=O)NC5CC6(C5)CC(C(=O)O)C6)c43)cc2)n1 (stereo not drawn) , system hEP2 (Homo sapiens)?
output: > 10000 nM

input: Checklist item: IC50 tested on hEP2 (Homo sapiens), entry O=C(NC1CC2(C1)CC(C(=O)O)C2)c1csc2ccn(CC#Cc3ccccc3)c12 (stereo not drawn) , value?
output: > 10000 nM

input: Lab note: need IC50 with hEP2 (Homo sapiens) for entry Cc1sc(C)c(C(=O)NC2CC3(C2)CC(C(=O)O)C3)c1Cc1ccc(N2CCOCC2)cc1 (stereo not drawn) , please look it up.
output: > 10000 nM

input: Report IC50 for Cc1scc(Cc2ccc(-c3ccccc3)cc2)c1C(=O)NC1CC2(C1)CC(C(=O)O)C2 (stereo not drawn) tested on hEP2 (Homo sapiens).
output: 500 to 5000 nM

input: // lookup IC50 | system=hEP2 (Homo sapiens) | key= Cn1cc(-c2ccc(Cn3ccc4scc(C(=O)NC5CC6(C5)CC(C(=O)O)C6)c43)cc2)cn1 (stereo not drawn)
output: > 10000 nM

input: Notebook entry, hEP2 (Homo sapiens) assay: IC50 of O=C(NC1CC2(C1)CC(C(=O)O)C2)c1csc2ccn(Cc3ccc(-c4cncc(F)c4)cc3)c12 (stereo not drawn) = ?
output: 500 to 5000 nM

input: Under hEP2 (Homo sapiens): IC50 value of Cc1sc(C)c(C(=O)NC2CC3(C2)CC(C(=O)O)C3)c1Cc1ccc(-c2cc(F)cc(C#N)c2)cc1 (stereo not drawn) ?
output: 5000 to 10000 nM

input: Request body: readout IC50, system hEP2 (Homo sapiens), query O=C(NC1CC2(C1)CC(C(=O)O)C2)c1c(Br)sc(Br)c1Cc1ccc(-c2ccccc2)cc1 (stereo not drawn) . Return the value.
output: > 10000 nM

input: Provide value of IC50 for this record tested with hEP2 (Homo sapiens): O=C(NC1CC2(C1)CC(C(=O)O)C2)c1csc2ccn(Cc3ccc4c(ccn4Cc4ccccc4)c3)c12 (stereo not drawn)
output: > 10000 nM

input: Give the reported IC50 for COc1cc(-c2ccc(Cc3c(C)sc(C)c3C(=O)NC3CC4(C3)CC(C(=O)O)C4)cc2)cc(N2CCC2=O)c1 (stereo not drawn) (system: hEP2 (Homo sapiens)).
output: 500 to 5000 nM

input: Record lookup: for hEP2 (Homo sapiens), what IC50 belongs to O=C(NC1CC2(C1)CC(C(=O)O)C2)c1csc2ccn(Cc3ccc(-c4ncccn4)cc3)c12 (stereo not drawn) ?
output: 5000 to 10000 nM
